- assay_system: recombinant soluble homotrimeric HA of A/Netherlands/219/03 (H7N7) (Influenza A virus A/Netherlands/219/03 (H7N7))
- test_description: HA microarray, BCC supernatant
- condition_set: remark: other sources report otherwise
The entries below are paired with their reported Trimeric HA Binding RLU.
Give your result in RLU as a bare value.

As a guide, the following entries are already answered.
INSERT INTO results (binder, quantitative_readout) VALUES
  ('TCN-547 (5092_F11) (antibody, V domains shown) VH: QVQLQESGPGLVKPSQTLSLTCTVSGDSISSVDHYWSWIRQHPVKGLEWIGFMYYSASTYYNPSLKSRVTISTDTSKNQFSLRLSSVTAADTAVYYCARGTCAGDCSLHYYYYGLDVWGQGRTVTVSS VL: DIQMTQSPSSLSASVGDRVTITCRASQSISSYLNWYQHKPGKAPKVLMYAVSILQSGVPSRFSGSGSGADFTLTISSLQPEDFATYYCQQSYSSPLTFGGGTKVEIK', 401),
  ('TCN-540 (5060_F05) (antibody, V domains shown) VH: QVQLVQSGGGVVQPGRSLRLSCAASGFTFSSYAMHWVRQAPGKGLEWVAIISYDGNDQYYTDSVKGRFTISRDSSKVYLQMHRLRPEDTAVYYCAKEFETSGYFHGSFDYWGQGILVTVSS VL: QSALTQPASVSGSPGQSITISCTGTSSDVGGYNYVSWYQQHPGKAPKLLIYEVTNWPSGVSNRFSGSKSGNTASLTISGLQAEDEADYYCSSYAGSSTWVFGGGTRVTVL', 381);

Now take the following binder into account.
Ask: Query (binder): TCN-527 (5086_C06) (antibody, V domains shown) VH: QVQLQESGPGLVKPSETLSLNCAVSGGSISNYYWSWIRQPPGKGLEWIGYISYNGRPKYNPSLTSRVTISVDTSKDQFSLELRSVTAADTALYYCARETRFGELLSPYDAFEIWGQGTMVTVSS VL: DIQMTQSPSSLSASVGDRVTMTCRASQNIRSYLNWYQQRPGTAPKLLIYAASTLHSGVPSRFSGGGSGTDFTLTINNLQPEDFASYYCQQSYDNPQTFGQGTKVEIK ; field requested: Trimeric HA Binding RLU
Result: 8890
